# target: Glutamate receptor ionotropic, AMPA (Rattus norvegicus, UniProt P19490+P19491+P19492+P19493)
readout.label: log10 of Ki (log10 of the value in nM)
Please keep in mind that the values are log10 of Ki expressed in nM.

For orientation, consider the following solved cases.
| input.smiles | reported |
| --- | --- |
| CCc1nccn1-c1cc2nc(O)c(O)nc2cc1[N+](=O)[O-] | 2.59 |
| Oc1nc2cc(-n3ccnc3)c(C(F)(F)F)cc2nc1O | 2.30 |
| O=[N+]([O-])c1cc2nc(O)c(O)nc2cc1-n1cnc2ccccc21 | 3.11 |
| Cc1cn(-c2cc3nc(O)c(O)nc3cc2[N+](=O)[O-])cn1 | 2.26 |
| O=[N+]([O-])c1cc2nc(O)c(O)nc2cc1-c1c[nH]cn1 | 2.84 |
| O=[N+]([O-])c1cc(-n2ccnc2)cc2nc(O)c(O)nc12 | 3.28 |
| N#Cc1ccc2nc(O)c(O)nc2c1 | 3.70 |
| O=[N+]([O-])c1cc2nc(O)c(O)nc2cc1-c1cccnc1 | 2.79 |
| O=[N+]([O-])c1cc2nc(O)c(O)nc2cc1-n1cnc2c1CCCC2 | 3.68 |
| Cc1nccn1-c1cc2nc(O)c(O)nc2cc1[N+](=O)[O-] | 2.63 |

Here is the next item to consider.
Reported log10 of Ki, compound Oc1nc2cc(-n3ccnc3)c(-n3ccnc3)cc2nc1O : ____
2.91

* * *

Recorded inhibition values for a group of compounds are listed next.
# target: Glutamate receptor ionotropic, AMPA (Rattus norvegicus) (UniProt P19491+P19492+P19493+P19490)
# assay.info: Ability to inhibit [3H]AMPA binding to AMPA receptor in rat whole brain at 1 uM concentration
The answer is to be given in %; state only the numeric part.

Use these answered entries as a reference point.
| input.smiles | readout.label | unit.spec | reported |
| --- | --- | --- | --- |
| Oc1nc2cc(F)c(-n3ccnc3)cc2nc1O | inhibition | % | 14 |
| Cc1cc2nc(O)c(O)nc2cc1-n1ccnc1 | inhibition | % | 14 |

May I ask what inhibition has been recorded for CC(=O)c1cc2nc(O)c(O)nc2cc1-n1ccnc1 ?
36

Also Oc1nc2ccc(-n3ccnc3)c(C(F)(F)F)c2nc1O ?
10

Item: Nc1cc2nc(O)c(O)nc2cc1-n1ccnc1
16

* * *

# target: Glutamate receptor ionotropic, kainate
# assay.info: Binding affinity against kainate receptor in rat brain membrane using [3H]kainate as radioligand
readout.label: Ki (µM)
A number alone suffices; assume µM.

| molecule | reported |
| --- | --- |
| O=c1[nH]c2cc(-n3ccnc3)c([N+](=O)[O-])cc2[nH]c1=O [YM-90K] | 2.2 |

Attention now turns to another entry.
Given the entry N#Cc1cc2c(cc1[N+](=O)[O-])=NC(=O)C(=O)N=2 , report its measured Ki.
1.8

* * *

# target: Glutamate receptor ionotropic, AMPA (Rattus norvegicus, UniProt P19490+P19491+P19492+P19493)
readout.label: pKi
Just the number, please; pKi means minus log10 of the concentration in mol/L.

| input.smiles | pKi |
| --- | --- |
| O=[N+]([O-])c1cc2nc(O)c(O)nc2cc1-n1cccn1 | 5.85 |
| O=[N+]([O-])c1ccc2nc(O)c(O)nc2c1 | 5.70 |

Moving on to another compound below.
# input compound: N#Cc1cc2nc(O)c(O)nc2cc1-n1ccnc1 ; wanted: its pKi
6.70

Source of measurements: ChEMBL document CHEMBL1127329
